inhibition at 20 µM listing for selected compounds.
- tested_on: Rho-A (Homo sapiens (Human), UniProt P61586)
- Sequence (P61586 whole entry): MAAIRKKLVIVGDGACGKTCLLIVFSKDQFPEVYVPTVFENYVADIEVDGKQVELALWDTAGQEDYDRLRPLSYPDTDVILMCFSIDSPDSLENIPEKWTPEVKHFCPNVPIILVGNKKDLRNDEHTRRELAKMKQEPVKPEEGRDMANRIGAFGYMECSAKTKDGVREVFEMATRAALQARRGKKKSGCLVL
- experiment: Rho inhibition assay (labeled GTP)
- Type: binding
- test_parameters: read-out: Rho-A % Inh.

INSERT INTO results (compound, tested_on, measured_value) VALUES
  ('Nc1nc(-c2ccccn2)nc2c(-c3ccccc3Cl)csc12 [drawing 3707]', 'Rho-A (Homo sapiens (Human), UniProt P61586)', '25 to 50%'),
  ('N#Cc1cccc(CCNC(=O)c2csc3nc(-c4ccccn4)nc(N4CCOCC4)c23)c1 [drawing 3676]', 'Rho-A (Homo sapiens (Human), UniProt P61586)', '51 to 75%'),
  ('COCCNc1nc(-c2nccn2C)nc2sc(C)c(-c3ccccc3)c12 [drawing 3902]', 'Rho-A (Homo sapiens (Human), UniProt P61586)', '51 to 75%'),
  ('COc1cnc(-c2nccn2C)nc1O [drawing 3831]', 'Rho-A (Homo sapiens (Human), UniProt P61586)', '76 to 100%');

Recorded inhibition at 20 µM of Cc1cnccc1-c1csc2c(O)nc(-c3ccccn3)nc12 [drawing 3760] , please.
76 to 100%

Recorded inhibition at 20 µM of Cc1cc(OC(F)F)ccc1-c1csc2c(O)nc(-c3ccccn3)nc12 [drawing 3750] , please.
1 to 25%
